Test system: Monochoria vaginalis
Assay: Test Method 1: soil application in paddy fields, herbicidal efficacy; note: ranges in brackets are in %
Assay type: in vivo
Conditions: 1 kg ai/ha, wettable powder applied to paddy water, assessed 28 days after application
measurement-type: Herbicidal efficacy (Point) MOOVA

compound | target | Herbicidal efficacy (Point) MOOVA
COC=C(Oc1ccccc1COc1ccccc1C)C(=O)OC | Monochoria vaginalis | 10 (90-100)
COC=C(Oc1ccc(Cl)cc1COc1ccccc1C)C(=O)O | Monochoria vaginalis | 9 (80-90)
COC=C(Oc1ccc(Cl)cc1CO)C(=O)OC | Monochoria vaginalis | 10 (90-100)

I have 6 compounds here; please give me Herbicidal efficacy (Point) MOOVA for each one.
1. CCC(=NOCc1ccccc1)OCc1ccccc1OC(=COC)C(=O)OC [Compound 5.146 Z isomer]
2. COC=C(Oc1ccc(Cl)cc1CON=C(C)c1ccc(Cl)cc1)C(=O)OC
3. COC=C(Oc1ccccc1CON=C(C)c1ccc(Cl)cc1)C(=O)OC
4. COC=C(Oc1ccc(Cl)cc1CON=C(C)OCc1ccccc1)C(=O)OC
5. COC=C(Oc1ccccc1CON=C(C)OCc1ccccc1)C(=O)OC
6. COC=C(Oc1ccc(Cl)cc1CON=C(C)C)C(=O)OC

1. 10 (90-100)
2. 10 (90-100)
3. 10 (90-100)
4. 10 (90-100)
5. 10 (90-100)
6. 9 (80-90)

###

Tested on: Lindemia procunbens
Test: Test Method 1: soil application in paddy fields, herbicidal efficacy; note: ranges in brackets are in %
Type: in vivo
Conditions: 1 kg ai/ha, wettable powder applied to paddy water, assessed 28 days after application
Procedure: Test Method 1 (Soil Application in Paddy Fields) A suitable amount of water and chemical fertiliser were added to paddy field soil. A plastic pot (1/5000 a; 200 cm2) was filled with a portion of this soil followed by kneading to convert it to a state of a paddy field. […] After 28 days from the application with the chemicals, herbicidal effects on each weeds and phytotoxicity on paddy field rice plants were assessed according to the following criteria of Table 3. […]
measurement-type: Herbicidal efficacy (Point) LIDPY

List the reported Herbicidal efficacy (Point) LIDPY of each molecule below.
1. COC=C(Oc1ccc(Cl)cc1CO)C(=O)OC
2. COC=C(Oc1ccc(Cl)cc1CON=C(C)C)C(=O)OC
3. COC=C(Oc1ccccc1COc1ccccc1C)C(=O)OC
4. COC=C(Oc1ccc(Cl)cc1COc1ccccc1C)C(=O)O
5. COC=C(Oc1ccccc1CON=C(C)OCc1ccccc1)C(=O)OC
6. COC=C(Oc1ccc(Cl)cc1CBr)C(=O)OC
7. COC=C(Oc1ccccc1CON=C(C)c1ccc(Cl)cc1)C(=O)OC

10 (90-100)
10 (90-100)
8 (70-80)
0 (0)
8 (70-80)
7 (60-70)
8 (70-80)

Please report Herbicidal efficacy (Point) LIDPY for every entry that follows.
1. COC=C(Oc1ccc(Cl)cc1COC(C)=O)C(=O)OC
2. CCC(=NOCc1ccccc1)OCc1cc(Cl)ccc1OC(=COC)C(=O)OC [Compound 5.541 E isomer]
3. COC=C(Oc1ccc(Cl)cc1CON=C(C)c1ccc(Cl)cc1)C(=O)OC
4. COC=C(Oc1ccc(Cl)cc1CON=C(C)OCc1ccccc1)C(=O)OC
5. COC=C(Oc1ccc(Cl)cc1COc1ccccc1C)C(=O)OC

1. 10 (90-100)
2. 10 (90-100)
3. 9 (80-90)
4. 5 (40-50)
5. 9 (80-90)
